- experimental.protocol: Hydrolysis Assay of Example A2, Condition 1 (SGF with pepsin, pH 1.5, 37° C.)
- Format: physicochemical
- condition.notes: SGF with pepsin pH 1.5, 37° C., 0.5 mM; time 5 min
quantity.name: Condition 1 Conversion (%)
One number for each entry, in %.

See these solved cases before continuing.
- compound: "COc1ccc([C@]23CCN(C)[C@H]2CC2(CC3)Oc3ccccc3O2)cc1OC"
  quantity.name: "Condition 1 Conversion (%)"
  reading.unit: "%"
  value: 0
- compound: "COc1ccc([C@]23CCN(C)[C@H]2CC2(CC3)OCC(c3cccc([N+](=O)[O-])c3)O2)cc1OC (stereo partly shown)"
  quantity.name: "Condition 1 Conversion (%)"
  reading.unit: "%"
  value: 0

List Condition 1 Conversion (%) for every entry below, keeping the order given.
1. COc1ccc([C@]23CCN(C)[C@H]2CC2(CC3)OCC(C)O2)cc1OC (stereo partly shown)
2. COc1ccc([C@@]23CCN(C)[C@@H]2CC2(CC3)OCCS2)cc1OC (stereo partly shown)
3. COc1ccc([C@]23CCN(C)[C@H]2CC2(CC3)OC[C@H](c3cccnc3)O2)cc1OC (stereo partly shown)
4. CCCCC(=O)OC1=C[C@@H]2N(C)CC[C@]2(c2ccc(OC)c(OC)c2)CC1
5. CCC(C)CC(=O)OC1=C[C@@H]2N(C)CC[C@]2(c2ccc(OC)c(OC)c2)CC1 (stereo partly shown)

0
0
0
0
0

List Condition 1 Conversion (%) for every entry below, keeping the order given.
1. COc1ccc([C@@]23CC/C(=N/OC(C)(C)OC)C[C@@H]2N(C)CC3)cc1OC
2. COc1ccc([C@]23CCN(C)[C@H]2CC2(CC3)OC[C@@H](c3ccccc3)O2)cc1OC (stereo partly shown)

100
0
